Reported IC50 is given for each of the following molecules.
Tested on: Chinese hamster Ovary cells (CHO-K1)
Assay: Cytotoxicity assay (WST-1 / Neutral Red)
Type: cell-based
Conditions: Cricetulus griseus, 24 h, 24-h incubation

>  <Molecule>
CC(C)OC(=O)CCC(C)C1CCC2C3C(O)CC4CC(NCCN(CCN)CCN)CCC4(C)C3CC(O)C12C (centres unmarked)

>  <Assay target>
Chinese hamster Ovary cells (CHO-K1)

>  <Result>
81 µg/mL

$$$$

Kindly state the measured IC50 obtained for CC(C)OC(=O)CCC(C)C1CCC2C3C(O)CC4CC(NCCN(CCN)CCN)CCC4(C)C3CCC12C (centres unmarked) with Chinese hamster Ovary cells (CHO-K1). 141 µg/mL

Also check COC(=O)CCC(C)C1CCC2C3CCC4CC(NCCNCCNCCNCCNCN)CCC4(C)C3CC(O)C12C (centres unmarked) 93 µg/mL

Also check CC(C)OC(=O)CCC(C)C1CCC2C3CCC4CC(NCCCNCCCNCCCN)CCC4(C)C3CCC12C (centres unmarked) 15 µg/mL

Also check CCOC(=O)CCC(C)C1CCC2C3C(O)CC4CC(NCCCNCCCCNCCCN)CCC4(C)C3CCC12C (centres unmarked) 45 µg/mL
